target: EPHB2 (UniProt P29323); assay: phosphorylation enrichment, bacterial display (enrichment ratio); higher = better substrate or ligand; peptides without Tyr show the background;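 further: 11-residue human phosphosite peptides and single-mutation variants displayed on the E. coli surface, counted by deep sequencing, each peptide's frequency after selection divided by its frequency in the unselected input library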;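 further: frequency after pTyr selection over input frequency; kinase dosed for 20-30% of maximal phosphorylation in three min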
Sequence (P29323 whole entry, looked up): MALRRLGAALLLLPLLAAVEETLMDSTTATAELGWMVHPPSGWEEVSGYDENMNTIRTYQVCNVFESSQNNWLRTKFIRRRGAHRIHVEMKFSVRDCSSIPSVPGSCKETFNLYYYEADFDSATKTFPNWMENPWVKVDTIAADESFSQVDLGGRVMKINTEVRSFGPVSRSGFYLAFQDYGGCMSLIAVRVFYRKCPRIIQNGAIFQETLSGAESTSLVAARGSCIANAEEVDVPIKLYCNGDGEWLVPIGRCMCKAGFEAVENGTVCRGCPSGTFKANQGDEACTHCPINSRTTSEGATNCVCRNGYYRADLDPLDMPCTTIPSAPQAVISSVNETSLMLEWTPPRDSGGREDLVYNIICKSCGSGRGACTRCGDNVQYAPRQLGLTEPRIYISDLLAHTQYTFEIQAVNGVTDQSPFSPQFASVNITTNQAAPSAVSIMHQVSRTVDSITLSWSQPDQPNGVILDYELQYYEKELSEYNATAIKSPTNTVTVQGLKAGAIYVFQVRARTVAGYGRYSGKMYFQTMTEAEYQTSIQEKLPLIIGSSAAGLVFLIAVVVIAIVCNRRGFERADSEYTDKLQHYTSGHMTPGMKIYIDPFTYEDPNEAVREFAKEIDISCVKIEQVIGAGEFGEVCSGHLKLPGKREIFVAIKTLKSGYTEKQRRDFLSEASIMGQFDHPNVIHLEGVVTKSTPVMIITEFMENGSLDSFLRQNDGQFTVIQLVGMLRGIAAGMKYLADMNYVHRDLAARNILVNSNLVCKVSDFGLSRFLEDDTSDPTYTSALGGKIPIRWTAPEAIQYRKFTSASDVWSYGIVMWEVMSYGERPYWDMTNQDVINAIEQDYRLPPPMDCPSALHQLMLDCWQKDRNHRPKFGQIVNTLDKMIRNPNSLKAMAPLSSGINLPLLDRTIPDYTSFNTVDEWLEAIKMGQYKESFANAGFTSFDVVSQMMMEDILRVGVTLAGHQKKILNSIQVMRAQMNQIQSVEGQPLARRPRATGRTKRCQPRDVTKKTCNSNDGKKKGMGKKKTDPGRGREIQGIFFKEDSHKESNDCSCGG
Please note: label 1 applies when phosphorylation enrichment is 0.7 or greater, and label 0 applies otherwise.

>>> classassignment("RFLRGYRQDAF [HLA-A_Y137_YF]")
"label 0"
>>> classassignment("HSLLQYGGSAN [ANK1_Y624_R619H]")
"label 0"
>>> classassignment("SLIEHYEPSET [PLCD1_Y258_R257H]")
"label 0"
>>> classassignment("NCFKYYMSDDI [ATRX_Y204]")
"label 0"
>>> classassignment("MLEVPYVDHNS [F10_Y384_R387H]")
"label 0"
>>> classassignment("SFPPTYRFERG [INPPL1_Y661_YF]")
"label 0"
>>> classassignment("ESVNTYLQTSP [NAT1_Y208_M205V]")
"label 1"
>>> classassignment("VTAALYGRLFE [BTD_Y536_YF]")
"label 0"
>>> classassignment("NKEPRYQEEPP [TJP2_Y479_D482E]")
"label 0"
>>> classassignment("IKIMGYFIRTI [IDS_Y490_S491F]")
"label 0"
>>> classassignment("RLQAAYNLVKR [PFKM_Y103_R100Q]")
"label 0"
>>> classassignment("KFLENYLNCLL [PLD2_Y169_R172C_YF]")
"label 0"
>>> classassignment("IIEDPYFGNDS [ACP1_Y132_YF]")
"label 0"
>>> classassignment("SPDMLYQFLKQ [RPAP3_Y567_YF]")
"label 1"
>>> classassignment("PFFTSYPPSPD [GDAP2_Y491_YF]")
"label 0"
>>> classassignment("VVPGSYDRLRV [IFT172_Y260_L257P]")
"label 1"
>>> classassignment("AARVSYWLASG [DCHS1_Y1582_R1583W]")
"label 1"
>>> classassignment("KKLHEYNTQFQ [PIK3R1_Y452]")
"label 0"
>>> classassignment("TGDFGYRAPGY [TNS2_Y668]")
"label 0"
>>> classassignment("SLLLSYFLIKW [NUP160_Y773_P768S_YF]")
"label 1"
>>> classassignment("WIPIQDPIISE [NOG_Y222_Y222D]")
"label 0"
>>> classassignment("LVIIKYLPEWT [PSEN1_Y240_F237I]")
"label 1"

* * *

biological target: Jak2 (UniProt O60674); test: phosphorylation enrichment, bacterial display (enrichment ratio); higher = better substrate or ligand; peptides without Tyr show the background
Sequence (O60674 whole entry, looked up): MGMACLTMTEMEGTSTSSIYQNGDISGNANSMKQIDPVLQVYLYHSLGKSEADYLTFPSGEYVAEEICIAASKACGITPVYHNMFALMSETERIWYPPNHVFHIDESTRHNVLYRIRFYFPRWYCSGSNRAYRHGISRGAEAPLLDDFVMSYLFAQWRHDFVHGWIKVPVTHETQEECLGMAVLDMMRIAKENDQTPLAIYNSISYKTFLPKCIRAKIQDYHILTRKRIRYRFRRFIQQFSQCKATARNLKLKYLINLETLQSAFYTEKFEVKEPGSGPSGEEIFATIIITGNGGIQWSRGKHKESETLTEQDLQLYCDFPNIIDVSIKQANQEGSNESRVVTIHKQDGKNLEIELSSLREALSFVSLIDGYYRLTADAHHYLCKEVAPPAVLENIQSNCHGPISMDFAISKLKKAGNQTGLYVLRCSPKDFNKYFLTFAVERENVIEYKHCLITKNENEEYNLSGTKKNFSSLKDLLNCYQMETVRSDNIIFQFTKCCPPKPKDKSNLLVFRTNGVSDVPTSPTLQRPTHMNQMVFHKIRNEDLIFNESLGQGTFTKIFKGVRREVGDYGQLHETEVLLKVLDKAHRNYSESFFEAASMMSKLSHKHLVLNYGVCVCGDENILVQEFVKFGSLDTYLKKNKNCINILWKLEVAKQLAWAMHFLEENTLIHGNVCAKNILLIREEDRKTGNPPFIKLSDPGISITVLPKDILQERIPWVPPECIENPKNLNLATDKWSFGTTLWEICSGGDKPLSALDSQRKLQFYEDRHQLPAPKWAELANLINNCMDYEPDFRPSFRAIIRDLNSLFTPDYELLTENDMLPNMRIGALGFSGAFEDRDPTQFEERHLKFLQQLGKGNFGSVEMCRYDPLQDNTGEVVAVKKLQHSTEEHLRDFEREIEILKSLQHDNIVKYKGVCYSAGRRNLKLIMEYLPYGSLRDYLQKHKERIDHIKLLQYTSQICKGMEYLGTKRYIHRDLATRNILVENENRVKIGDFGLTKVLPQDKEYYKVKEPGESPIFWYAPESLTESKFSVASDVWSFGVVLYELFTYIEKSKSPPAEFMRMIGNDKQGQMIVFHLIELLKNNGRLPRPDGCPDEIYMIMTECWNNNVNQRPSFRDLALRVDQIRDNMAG
Please note: MET applies when phosphorylation enrichment is 0.7 or greater, and NOT MET applies otherwise.

>>> classassignment("IHADICRWFNI [MARS1_Y344_Y344C]")
"MET"
>>> classassignment("KNNSIYVVANI [VNN1_Y134]")
"MET"
>>> classassignment("RNNTEYVRDIG [MUSK_Y577_I575T]")
"NOT MET"
>>> classassignment("RNIQQYNSFVS [PRKAR1A_Y373]")
"NOT MET"
>>> classassignment("AHAGEYGAGAL [HBA1_Y25_E28G]")
"NOT MET"
>>> classassignment("LITILYIGFLG [KCNQ1_Y267_T265I]")
"MET"
>>> classassignment("SAQHHYESLQT [BIN1_Y157_R154Q]")
"NOT MET"
>>> classassignment("SVETPYVSVTF [NDRG2_Y47_G48V]")
"MET"
>>> classassignment("TDGIAYEFRVI")
"MET"
>>> classassignment("AEPHTYEEPGR [EPHA8_Y616]")
"MET"
>>> classassignment("SVVVLYEPPEV [TP53_Y220_P219L]")
"MET"
>>> classassignment("LFMGDYVGRGF [PPP2CA_Y86_D88G_YF]")
"MET"
>>> classassignment("FESPRYLQVRI [FANCA_Y488_H492R]")
"MET"

* * *

Each entry below carries its reported phosphorylation enrichment.
tested on: c-Abl (mouse); experiment: phosphorylation enrichment, bacterial display (enrichment ratio); higher = better substrate or ligand; peptides without Tyr show the background
recordedEndpoint: phosphorylation enrichment

>>> recordedresult("GHNNVYISEHV [GRIN2A_Y1423_D1421N]")
0.522
>>> recordedresult("HYPDVYAWEQL [ALX3_Y181_R183W]")
0.404
>>> recordedresult("KKLHEYNTQFQ [PIK3R1_Y452]")
0.477
>>> recordedresult("FGRTFYNQAIM [MCCC2_Y196]")
0.635
>>> recordedresult("VQQVIYATRAL [MYH7_Y422_G425R]")
14.1
>>> recordedresult("REIHDYIKHLG [UNC13C_Y308_D304E]")
0.794
>>> recordedresult("SKKSTYRALLD [GANC_Y43_Q44R]")
0.447

* * *

test system: c-Abl (mouse); assay: phosphorylation enrichment, bacterial display (enrichment ratio); higher = better substrate or ligand; peptides without Tyr show the background
Please note: Y applies when phosphorylation enrichment is 1 or greater, and N applies otherwise.

>>> classassignment("QQIFTYDSGIH [JUP_Y22_T19I_YF]")
"Y"
>>> classassignment("SVETPYVSVTF [NDRG2_Y47_G48V]")
"N"
>>> classassignment("LLSVAYQNVVG [YWHAG_Y49_K50Q]")
"N"
>>> classassignment("HELYVYKSDEN [DOCK3_Y548_C550S]")
"Y"
>>> classassignment("SQQTYYPVSNM [ABCD1_Y181_R182P]")
"Y"
>>> classassignment("VTRANYFIRDE [GNAS_Y339_K338N]")
"N"
>>> classassignment("RHLQEYQDPLN [GFAP_Y349_L352P]")
"N"

* * *

target: FGFR1 (UniProt P11362); test: phosphorylation enrichment, bacterial display (enrichment ratio); higher = better substrate or ligand; peptides without Tyr show the background
Sequence (P11362 whole entry, looked up): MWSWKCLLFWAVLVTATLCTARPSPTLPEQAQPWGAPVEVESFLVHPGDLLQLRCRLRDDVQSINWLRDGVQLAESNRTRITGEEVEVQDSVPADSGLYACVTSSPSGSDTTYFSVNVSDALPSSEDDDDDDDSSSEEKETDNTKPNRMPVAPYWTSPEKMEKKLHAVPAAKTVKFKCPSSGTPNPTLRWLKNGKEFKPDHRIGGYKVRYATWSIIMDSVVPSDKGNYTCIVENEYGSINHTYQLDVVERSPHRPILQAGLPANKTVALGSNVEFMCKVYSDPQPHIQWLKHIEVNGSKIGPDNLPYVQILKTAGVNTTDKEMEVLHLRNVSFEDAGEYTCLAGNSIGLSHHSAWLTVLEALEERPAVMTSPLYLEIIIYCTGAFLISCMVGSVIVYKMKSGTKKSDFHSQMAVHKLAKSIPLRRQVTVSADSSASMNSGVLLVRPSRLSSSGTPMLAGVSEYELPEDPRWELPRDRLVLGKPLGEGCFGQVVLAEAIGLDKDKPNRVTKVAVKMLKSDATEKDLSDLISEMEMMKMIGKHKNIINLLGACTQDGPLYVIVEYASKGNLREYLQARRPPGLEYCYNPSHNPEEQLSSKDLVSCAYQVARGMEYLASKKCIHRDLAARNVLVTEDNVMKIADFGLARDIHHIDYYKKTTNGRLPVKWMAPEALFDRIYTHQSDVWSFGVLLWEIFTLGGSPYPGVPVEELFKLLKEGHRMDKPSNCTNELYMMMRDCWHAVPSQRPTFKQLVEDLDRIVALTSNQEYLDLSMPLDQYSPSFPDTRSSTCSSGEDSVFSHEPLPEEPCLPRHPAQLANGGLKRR
Each entry below carries its reported phosphorylation enrichment.
recordedEndpoint: phosphorylation enrichment

>>> recordedresult("TTICKYSTPME [GUCY2C_Y839]")
0.608
>>> recordedresult("IVTLKYPIEHG [ACTB_Y69_L65V]")
0.523
>>> recordedresult("LAETSYVIVLE [MAGEA1_Y276_K278I]")
0.688
>>> recordedresult("SMGHRYIEVFK [HNRNPF_Y82]")
0.408
>>> recordedresult("KAESWYQTKYE [KRT75_Y342_E337K]")
0.367
>>> recordedresult("NCFKFYMSDDI [ATRX_Y204_YF]")
0.565
>>> recordedresult("RHPFFFAPELL [ALB_Y174_Y174F_YF]")
0.619
>>> recordedresult("SSEFHCVGGFF [CTSC_Y347_Y347C_YF]")
0.466
>>> recordedresult("CKLCQYFLDHL [ATRX_Y1849_Y1847C_YF]")
0.689
>>> recordedresult("RGNKEYKEEKR [LENG1_Y96_E97K]")
0.606
>>> recordedresult("AHAGEHGAEAL [HBA1_Y25_Y25H]")
0.476
>>> recordedresult("IMITDYLPLFR [INSR_Y87_L89P]")
0.737
>>> recordedresult("LLSVAYQNVVG [YWHAG_Y49_K50Q]")
1.34
>>> recordedresult("DTQNSYGCATS [TSC1_Y304]")
0.422
>>> recordedresult("PYAEPYADYGG [APBA1_Y187_S184A]")
2.13
>>> recordedresult("DTQNSYWCATS [TSC1_Y304_G305W]")
1.07
>>> recordedresult("QTENKYDSVSG [EIF2AK3_Y565]")
0.912
>>> recordedresult("EGLKVYVNGTL [ADGRD1_Y183]")
0.527
>>> recordedresult("NKEPRYQEEPP [TJP2_Y479_D482E]")
0.444
>>> recordedresult("LLAGLYRGQAL [FGFR4_Y390]")
0.459
>>> recordedresult("TKVVHYRKWIK [KLK2_Y249]")
0.375
>>> recordedresult("VRALTYCDLHK [KCNH2_Y827]")
0.452
>>> recordedresult("TLSGIYQYNIA [FOXL2_Y81_I84N]")
0.752
>>> recordedresult("NREGVYRVFAP [TGFBI_Y537_T538R]")
0.409
>>> recordedresult("KRNSLYSFSDH [CCDC82_Y331_Q327R]")
0.411
>>> recordedresult("RMSSSYPTGLA [ADM_Y52]")
0.562
>>> recordedresult("HNLFSYPTKFE [MYO3A_Y1396_H1400Y_YF]")
0.671
>>> recordedresult("RYLTRYIYNRE [HLA-DQB1_Y62_V59L]")
0.564
>>> recordedresult("PVKAAYQKVVA [HBB_Y131_Q128K]")
0.539

* * *

target: Hck (UniProt P08631); experiment: phosphorylation enrichment, bacterial display (enrichment ratio); higher = better substrate or ligand; peptides without Tyr show the background
Sequence (P08631 whole entry, looked up): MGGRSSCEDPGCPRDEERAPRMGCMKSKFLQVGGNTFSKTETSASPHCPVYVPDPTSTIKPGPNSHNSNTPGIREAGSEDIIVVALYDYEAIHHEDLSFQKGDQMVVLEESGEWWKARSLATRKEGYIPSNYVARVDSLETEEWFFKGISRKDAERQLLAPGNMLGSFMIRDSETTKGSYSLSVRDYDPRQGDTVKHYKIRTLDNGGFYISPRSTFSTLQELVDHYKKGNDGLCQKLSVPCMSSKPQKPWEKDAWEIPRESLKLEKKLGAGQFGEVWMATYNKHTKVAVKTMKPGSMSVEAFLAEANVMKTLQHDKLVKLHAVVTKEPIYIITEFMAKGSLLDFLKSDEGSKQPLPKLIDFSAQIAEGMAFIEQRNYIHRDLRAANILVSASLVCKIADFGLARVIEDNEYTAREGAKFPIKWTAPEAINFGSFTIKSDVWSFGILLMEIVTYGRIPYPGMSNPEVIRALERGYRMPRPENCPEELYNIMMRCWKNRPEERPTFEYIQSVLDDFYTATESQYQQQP
recordedEndpoint: phosphorylation enrichment

>>> recordedresult("IRTDAYVWAMT [RPE65_Y89_R91W]")
0.517
>>> recordedresult("GGMTEYKLVVV [KRAS_Y4]")
0.446
>>> recordedresult("AGLVQYFMEHH [PTPN11_Y80_E76G_YF]")
0.565
>>> recordedresult("LQEQNYLAVDS [FAM114A1_Y115]")
0.946
>>> recordedresult("PFTRNYYVWAV [CYBA_Y87_R90W]")
1.03
>>> recordedresult("NGSFLYVIISQ [LRP1B_Y1988_R1987L]")
0.539
>>> recordedresult("GKMPQYLESMQ [CYB5R3_Y130_S128P]")
0.466
>>> recordedresult("RQNNSYTCFTA [SLC20A2_Y386_R382Q_YF]")
0.544
>>> recordedresult("MPLTEYLKRIK [CNGB3_Y200]")
0.365
>>> recordedresult("GHLYAYDWIRI [BEST1_Y227_S231R]")
3.12
>>> recordedresult("TNDRLYLRSLE [MTM1_Y71_Y68D]")
0.443
>>> recordedresult("KSMFVYCTPNK [ATP2A2_Y497_S495F]")
0.568
>>> recordedresult("DAANNYARGHF [TUBA3E_Y103_S101N_YF]")
0.426
>>> recordedresult("TKEPKYEGAGS [KIAA1210_Y1615]")
0.372
>>> recordedresult("HHTDECEFDEL [TGM1_Y134_Y134C_YF]")
0.586
>>> recordedresult("ILTYKYLQIPM [KIT_Y547_K550I]")
0.483
>>> recordedresult("IVFVICDEVVK [SLC25A1_Y297_Y297C]")
0.501
>>> recordedresult("SKEPFYVHCIK [MYO1D_Y586_R588H_YF]")
0.528
>>> recordedresult("SMEMKYLEEKN [ZAP70_Y451_G448E]")
0.548
>>> recordedresult("LFIDSYEKDVA [PGM1_Y521_YF]")
0.816
>>> recordedresult("RNGDRYFKEIV [DCX_Y64_G67E]")
0.559
>>> recordedresult("HGTKVYIDPFT [EPHB4_Y590]")
0.628
>>> recordedresult("YRIDHYLGKEM [G6PD_Y202]")
0.57
>>> recordedresult("KHTLSYVDVGT [SDHA_Y629]")
0.431
>>> recordedresult("KSPGEYVNIEF [IRS1_Y896]")
0.575
>>> recordedresult("HYPDVYAWEQL [ALX3_Y181_R183W]")
4.12
>>> recordedresult("GTAPSYGNPSS [CD19_Y378]")
0.336
>>> recordedresult("PLGPLYASSNP [INSR_Y992]")
4.49
>>> recordedresult("ALWYIYSHTRS [ENG_Y614]")
0.523
>>> recordedresult("TYAVSYLPDMS [FLNC_Y1602_T1599A]")
0.732
>>> recordedresult("VRALTYCDLHK [KCNH2_Y827]")
0.582
>>> recordedresult("EMFNPYFGLFE [NEDD4L_Y679_YF]")
6.01
>>> recordedresult("EDDPEYMRLRN [ADD2_Y31]")
0.724
>>> recordedresult("VAFLYYKSIGP [ADGRL4_Y302_V300L]")
0.625
>>> recordedresult("TFLRTYTDTMQ [TSPAN7_Y124_A127T]")
0.403
>>> recordedresult("NDEDIYKGLPD [VAV3_Y141]")
0.878
>>> recordedresult("HLQQSNLPRGT [TEX45_Y396_Y396N]")
0.534
>>> recordedresult("KGEDFYCVTCP [FHL1_Y149_H154P]")
2.96
>>> recordedresult("GLRQGYFVEAQ [APCS_Y142]")
0.408
>>> recordedresult("DKGTLYIAEQI [PLBD1_Y375_V377A]")
0.447
>>> recordedresult("REQREYLEQLN [CCDC88B_Y1277_D1279E]")
0.706
>>> recordedresult("SVETPYVSVTF [NDRG2_Y47_G48V]")
0.662
>>> recordedresult("IEENGYNTFAS [FGF10_Y161_YF]")
0.477
>>> recordedresult("TDGIAYEFRVI")
0.655
>>> recordedresult("RFLRGYRQDAF [HLA-A_Y137_YF]")
0.802
>>> recordedresult("RCNHPYLINGA [CHD7_Y1256_C1251R]")
0.506
>>> recordedresult("KEAALYPHLPP [SQSTM1_Y383]")
0.362
>>> recordedresult("HYEFKYVINAI [MAOA_Y268_C266F]")
0.489
>>> recordedresult("AKKKMYSHKTK [AGXT_Y231_R233H]")
0.666
>>> recordedresult("HNLYSYPTKYE [MYO3A_Y1396_H1400Y]")
8.88
>>> recordedresult("ALAQKYHGGGG [HBB_Y146_H144Q]")
0.368
>>> recordedresult("KIIRWYVSSEG [ANK2_Y3907_R3906W]")
0.498
>>> recordedresult("EILLSYLRTGY [TGM1_Y365]")
0.536
>>> recordedresult("RTCSSYAIEKI [PARP15_Y520]")
0.581
>>> recordedresult("INITIYGKTFC [EFHC1_Y177_R182C]")
0.505
>>> recordedresult("SECCKYKIDNL [OSMR_Y689_P694L]")
0.428
>>> recordedresult("FLQEIYNSNNQ [FGG_Y140_YF]")
1.69
>>> recordedresult("FIGRIYLFLTK [GARS1_Y414_YF]")
0.564
